- System: NMDA stimulated ^3 H-GABA release from cultured mouse cortex neurons
- experiment-description: Inhibition of NMDA stimulated 3H-GABA release from cultured mouse cerebral cortex interneurons (Test 3)
- Assay type: cell-based
- test-settings: Neuron, 3 μg/ml NMDA, read-out: Test 3 IC50 (inhibits 50% of NMDA induced 3H-GABA release)
property-label: IC50

Past entries and their recorded results:
{"molecule": "O=[N+]([O-])c1cc2nc(O)c(O)nc2c2nsnc12 [Ex 38]", "IC50": "0.09 µg/mL"}
{"molecule": "Cc1nc2c([N+](=O)[O-])cc3nc(O)c(O)nc3c2nc1C [Ex 36]", "IC50": "0.14 µg/mL"}
{"molecule": "Cn1nnc2c3nc(O)c(O)nc3cc([N+](=O)[O-])c21 [Ex 13]", "IC50": "0.11 µg/mL"}
{"molecule": "O=[N+]([O-])c1cc2nc(O)c(O)nc2c2[nH]ncc12 [Ex 9]", "IC50": "0.14 µg/mL"}

Then there is this molecule:
Sample O=[N+]([O-])c1cc2nc(O)c(O)nc2c2nccnc12 [Ex 35] ; IC50 observed: 0.1 µg/mL

====

- experimental-target: quisqualate type receptors
- experiment-description: 3H-AMPA binding (Test 1)
- test-settings: rat cerebral cortical membrane homogenate; 5 nM 3H-AMPA; 0° C., 30 min, pH 7.1
property-label: Test 1 IC50 (displacement of 50% of the specific binding of 3H-AMPA)

Past entries and their recorded results:
{"molecule": "Cn1nnc2c([N+](=O)[O-])cc3nc(O)c(O)nc3c21", "readout-value": "0,31 μg/ml"}
{"molecule": "O=[N+]([O-])c1cc2nc(O)c(O)nc2c2[nH]ncc12", "readout-value": "0,41 μg/ml"}
{"molecule": "O=[N+]([O-])c1cc2nc(O)c(O)nc2c2[nH]nnc12", "readout-value": "0,85 μg/ml"}
{"molecule": "Cn1nnc2c3nc(O)c(O)nc3cc(C#N)c21", "readout-value": "0,19 μg/ml"}
{"molecule": "O=[N+]([O-])c1cc2nc(O)c(O)nc2c2nsnc12", "readout-value": "0,13 μg/ml"}

Sample Cn1nnc2c3nc(O)c(O)nc3cc([N+](=O)[O-])c21 ; Test 1 IC50 (displacement of 50% of the specific binding of 3H-AMPA) observed: 0,07 μg/ml

Sample Oc1nc2ccc3nn[nH]c3c2nc1O ; Test 1 IC50 (displacement of 50% of the specific binding of 3H-AMPA) observed: 13,3 μg/ml

Sample N#Cc1cc2nc(O)c(O)nc2c2[nH]nnc12 ; Test 1 IC50 (displacement of 50% of the specific binding of 3H-AMPA) observed: 10 µg/mL

Sample Cc1nc2c([N+](=O)[O-])cc3nc(O)c(O)nc3c2nc1C ; Test 1 IC50 (displacement of 50% of the specific binding of 3H-AMPA) observed: 0,39 μg/ml

Sample Oc1nc2ccc3sccc3c2nc1O [Ex 39, 2,3-Dihydroxythieno[3,2-f]quinoxaline] ; Test 1 IC50 (displacement of 50% of the specific binding of 3H-AMPA) observed: 1,9 μg/ml

====

- Tested on: NMDA stimulated ^3 H-GABA release from cultured mouse cortex neurons
- experiment-description: Inhibition of NMDA stimulated 3H-GABA release from cultured mouse cerebral cortex interneurons (Test 3)
- Format: cell-based
- test-settings: Neuron, 3 μg/ml NMDA, read-out: Test 3 IC50 (inhibits 50% of NMDA induced 3H-GABA release)
property-label: IC50 (µg/mL)
Please respond with the number in µg/mL and leave the unit unwritten.

{"smiles-string": "Cn1nnc2c([N+](=O)[O-])cc3nc(O)c(O)nc3c21", "experimental-target": "NMDA stimulated ^3 H-GABA release from cultured mouse cortex neurons", "readout-value": 0.096}
{"smiles-string": "Cn1nnc2c3nc(O)c(O)nc3cc(C#N)c21", "experimental-target": "NMDA stimulated ^3 H-GABA release from cultured mouse cortex neurons", "readout-value": 0.73}

Sample O=[N+]([O-])c1cc2nc(O)c(O)nc2c2[nH]nnc12 ; IC50 observed: 0.26

Sample Cn1nc2c([N+](=O)[O-])cc3nc(O)c(O)nc3c2n1 ; IC50 observed: 0.14

Sample O=[N+]([O-])c1cc2nc(O)c(O)nc2c2nonc12 ; IC50 observed: 0.13

Source of measurements: patent US4977155A
